// Ki collected for 5-HT2A (Homo sapiens, UniProt P28223)
# value in nM; strip the unit string

Use the examples below as a reference point.
Record for C=CCNC(=O)C(C)N1CCCC(c2ccc(O)cc2)C1 (centres unmarked) under target or system 5-HT2A (Homo sapiens, UniProt P28223): Ki reported as 113

Record for c1ccc(O[C@H]2CCN(Cc3ccc(-c4ccn[nH]4)o3)C2)cc1 under target or system 5-HT2A (Homo sapiens, UniProt P28223): Ki reported as 162

Record for NC1Cc2ccccc2N(Cc2cc(O)cc(Br)c2)C1 (centres unmarked) under target or system 5-HT2A (Homo sapiens, UniProt P28223): Ki reported as 72

Record for Oc1ccc(C2=CCN(CC3CC34CC4)CC2)cc1 (centres unmarked) under target or system 5-HT2A (Homo sapiens, UniProt P28223): Ki reported as 24

Now take the following compound into account.
Record for CN(C(=O)c1cn[nH]n1)C1CCN(CCc2cccc(Cl)c2Cl)C1 (centres unmarked) under target or system 5-HT2A (Homo sapiens, UniProt P28223): Ki reported as 17

* * *

Readings of pKi for the listed compounds
Target: 5-HT2A (Homo sapiens)
Sequence (P28223 whole entry): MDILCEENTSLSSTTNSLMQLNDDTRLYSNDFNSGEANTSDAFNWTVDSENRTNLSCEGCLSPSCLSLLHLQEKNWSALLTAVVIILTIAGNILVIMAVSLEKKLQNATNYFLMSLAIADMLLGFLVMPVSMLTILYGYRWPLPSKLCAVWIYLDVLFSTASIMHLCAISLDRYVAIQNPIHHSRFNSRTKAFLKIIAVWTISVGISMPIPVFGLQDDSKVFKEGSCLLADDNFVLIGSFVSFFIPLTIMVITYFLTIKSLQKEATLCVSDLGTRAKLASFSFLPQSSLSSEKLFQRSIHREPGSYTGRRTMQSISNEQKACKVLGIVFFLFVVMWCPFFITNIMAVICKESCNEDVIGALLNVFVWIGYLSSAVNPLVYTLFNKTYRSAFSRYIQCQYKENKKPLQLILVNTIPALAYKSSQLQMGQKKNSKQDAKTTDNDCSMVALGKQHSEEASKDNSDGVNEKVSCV
When answering, recall that pKi equals minus log10 of the concentration in mol/L, and write that number alone.

Record for NCC1Cc2cc(F)ccc2N(C(=O)Cc2cc(F)ccc2Br)C1 (stereo not drawn) under target or system 5-HT2A (Homo sapiens): pKi reported as 7.82

Record for CCN(Cc1cc(Br)ccc1O)C(=O)C(N)Cc1ccco1 (stereo not drawn) under target or system 5-HT2A (Homo sapiens): pKi reported as 6.94

Now take the following compound into account.
Record for COc1ccccc1CC1CCN(CC(=O)c2cc(C)[nH]c2C)C1 (stereo not drawn) under target or system 5-HT2A (Homo sapiens): pKi reported as 6.46

* * *

Biological target: 5-HT2A (Homo sapiens)
Type: binding
Details: printed as log(Ki) with negative sign; [3H]-LSD 0.5 nM, HEK293 membranes
Readings of log(Ki) for the listed molecules

// recorded log(Ki) for Cc1cccc(OCCCC(=O)N2CCNCc3ccccc32)c1 : −6.51 ± 0.085

// recorded log(Ki) for CC(C)C(N)CCN(C)C(=O)C(=O)Nc1cc2ccccc2cc1Cl (stereo not drawn) : −7.15 ± 0.073

// recorded log(Ki) for Clc1ccc(C#CCN2CCCC(c3ccn[nH]3)C2)cc1 (stereo not drawn) : −6.65 ± 0.083
